# target_or_test_system: UniProt P37288
# Sequence (P37288 whole entry): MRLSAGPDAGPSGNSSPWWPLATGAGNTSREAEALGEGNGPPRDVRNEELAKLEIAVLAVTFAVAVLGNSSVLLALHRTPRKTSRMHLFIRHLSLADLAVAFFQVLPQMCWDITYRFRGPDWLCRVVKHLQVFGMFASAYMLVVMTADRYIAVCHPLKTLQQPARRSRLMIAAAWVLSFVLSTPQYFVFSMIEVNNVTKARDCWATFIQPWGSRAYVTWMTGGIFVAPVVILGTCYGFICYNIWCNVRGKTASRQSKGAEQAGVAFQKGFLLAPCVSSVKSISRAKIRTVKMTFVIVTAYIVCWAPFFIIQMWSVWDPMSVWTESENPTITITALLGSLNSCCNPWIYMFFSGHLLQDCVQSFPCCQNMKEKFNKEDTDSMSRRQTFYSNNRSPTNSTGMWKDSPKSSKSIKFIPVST
# experiment_notes: Cellular in vitro assay for vasopressin receptor activity (aequorin luminescence, CHO K1 cells), hV1a
# experimental_parameters: CHO cell line transfected with human V1a receptor, agonist [Arg8]-vasopressin
pIC50: −log10 of the molar value.
parameter: pIC50

Examples with their reported pIC50 follow.
The recorded pIC50 for entry C[C@@](NC(=O)Cn1nc(-c2ccc(Cl)cc2)n(C[C@H](O)C(F)(F)F)c1=O)(C(N)=O)c1cccc(C(F)(F)F)c1 equals 6.97

The recorded pIC50 for entry CC(NC(=O)Cn1nc(-c2ccc(Cl)cc2)n(Cc2ccccc2F)c1=O)(C(N)=O)c1cccc(C(F)(F)F)c1 (single isomer, unassigned) equals 8.22

1 = C[C@](NC(=O)Cn1nc(-c2ccc(Cl)cc2)n(/C=C/C(F)(F)F)c1=O)(C(N)=O)c1cccc(C(F)(F)F)c1
2 = CCC(NC(=O)Cn1nc(-c2ccc(Cl)cc2)n(C[C@H](O)C(F)(F)F)c1=O)(C(N)=O)c1cccc(C(F)(F)F)c1 (single isomer, unassigned)
Between 1 and 2 , which one has the lower reported pIC50 value? # reply format: chosen label 1

P = C[C@](NC(=O)Cn1nc(-c2ccc(Cl)cc2)n(C[C@H](O)C(F)(F)F)c1=O)(C(N)=O)c1cccc(C(F)(F)F)c1
Q = CC(NC(=O)Cn1nc(-c2ccc(Cl)cc2)n(C[C@H](O)C(F)(F)F)c1=O)(C(=O)O)c1cccc(C(F)(F)F)c1 (stereo partly shown)
Which value of pIC50 is numerically greater: that of P or that of Q ? # reply format: chosen label P
(P: 8.66, Q: 6.93)

====

# target_or_test_system: human V2 receptor (Homo sapiens)
# experiment_notes: Cellular in vitro assay for vasopressin receptor activity (aequorin luminescence, CHO K1 cells), hV2
# experimental_parameters: CHO cell line transfected with human V2 receptor and Gα16, agonist [Arg8]-vasopressin
parameter: IC50 (nM)

The recorded IC50 for entry CCC(NC(=O)Cn1nc(-c2ccc(Cl)cc2)n(C[C@H](O)C(F)(F)F)c1=O)(C(N)=O)c1cccc(C(F)(F)F)c1 (single isomer, unassigned) equals 6.4

A = CC(NC(=O)Cn1nc(-c2ccc(Cl)cc2)n(C[C@H](O)C(F)(F)F)c1=O)(C(=O)O)c1cccc(C(F)(F)F)c1 (stereo partly shown)
B = C[C@](NC(=O)Cn1nc(-c2ccc(Cl)cc2)n(C[C@H](O)C(F)(F)F)c1=O)(C(N)=O)c1ccccc1Cl
C = C[C@](NC(=O)Cn1nc(-c2ccc(Cl)cc2)n(C[C@H](O)C(F)(F)F)c1=O)(C(N)=O)c1cccc(C(F)(F)F)c1
Task for the reader: rank each entry by its IC50, from the minimum upward. Could you list the labels in the order requested? C, A, B

====

# target_or_test_system: human V2 receptor (Homo sapiens, UniProt P30518)
# Sequence (P30518 whole entry): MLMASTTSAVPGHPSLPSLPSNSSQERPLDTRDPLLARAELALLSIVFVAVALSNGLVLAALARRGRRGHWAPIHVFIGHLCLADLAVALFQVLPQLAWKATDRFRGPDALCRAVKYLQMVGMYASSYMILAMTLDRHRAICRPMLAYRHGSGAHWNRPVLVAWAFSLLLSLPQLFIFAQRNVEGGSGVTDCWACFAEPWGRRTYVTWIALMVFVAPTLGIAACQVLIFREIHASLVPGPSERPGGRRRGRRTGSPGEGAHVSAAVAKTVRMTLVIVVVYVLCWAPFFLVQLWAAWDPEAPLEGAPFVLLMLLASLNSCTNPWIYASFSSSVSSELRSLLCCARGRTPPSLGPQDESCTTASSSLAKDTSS
# experiment_notes: Cellular in vitro assay for vasopressin receptor activity (aequorin luminescence, CHO K1 cells), hV2
# experimental_parameters: CHO cell line transfected with human V2 receptor and Gα16, agonist [Arg8]-vasopressin
parameter: IC50 (µM)

The recorded IC50 for entry CC(NC(=O)Cn1nc(-c2ccc(Cl)cc2)n(Cc2ccccc2F)c1=O)(C(N)=O)c1cccc(C(F)(F)F)c1 (single isomer, unassigned) equals 0.016

1 = C[C@](NC(=O)Cn1nc(-c2ccc(Cl)cc2)n(/C=C/C(F)(F)F)c1=O)(C(N)=O)c1cccc(C(F)(F)F)c1
2 = C[C@@](NC(=O)Cn1nc(-c2ccc(Cl)cc2)n(C[C@H](O)C(F)(F)F)c1=O)(C(N)=O)c1cccc(C(F)(F)F)c1
Between 1 and 2 , which one has the lower reported IC50 value? # reply format: chosen label 1
(1: 0.014 µM, 2: 0.028 µM)
